System: NCI-H460
experiment-notes: NCI tumour cell line growth inhibition, 48 h
Counter-ions that a name gives are not always drawn. Calls of active or inactive are those of the source. No stated cut-off is given here; in the data, active = GI50 up to about 1.1 µM and inactive = higher.
Outcome codes: active, inactive

| compound | experimental-target | assigned-class |
| --- | --- | --- |
| N[C@@H](Cc1ccc(N(CCCl)CCCl)cc1)C(=O)O [MELPHALAN HYDROCHLORIDE] | NCI-H460 | inactive |
| CC1(C)C(=O)/C=C\C(=O)C(C)(C)C(=O)/C=C\C(=O)C(C)(C)C2=CC=C(O2)C(C)(C)C(=O)/C=C\C1=O | NCI-H460 | inactive |
| CCCCNc1nc(NC2OCC(OC(C)=O)C(OC(C)=O)C2OC(C)=O)c(N=O)c(=O)n1C (stereo not given) | NCI-H460 | inactive |
| CC(=O)OCCC(O[Si](c1ccccc1)(c1ccccc1)C(C)(C)C)C(C)(C)O (stereo not given) | NCI-H460 | inactive |
| OCC(O)C1OC2CC1Nc1ccccc1N2 (stereo not given) | NCI-H460 | inactive |
| O=C(Nc1cccc2ccccc12)c1ccccc1 | NCI-H460 | inactive |
| O=c1oc2nc(-c3ccccc3)cc(C(F)(F)F)c2n1Cc1ccccc1 | NCI-H460 | inactive |
| Clc1c2nc3ccccc3c-2[nH]c2ccccc12 | NCI-H460 | inactive |
| Cc1cc(OCC(=O)O)c(Cl)cc1Cl | NCI-H460 | inactive |
| O=C(CCC(=O)CC(O)(C(F)(F)F)C(F)(F)F)CC(O)(C(F)(F)F)C(F)(F)F | NCI-H460 | inactive |
| CCCCCCCCCCCCCCCCSCC(COC)COP(=O)([O-])OCC[N+](C)(C)C (stereo not given) [ILMOFOSINE] | NCI-H460 | inactive |
| COc1ccc(/C=C/c2cc(OC)c(OC)c(OC)c2)cc1OC | NCI-H460 | inactive |
| Cc1c2c(cc[n+]1C)O[B-](c1ccccc1)(c1ccccc1)O2 | NCI-H460 | inactive |
| Cc1cc2ccccc2oc(=O)/c1=N\Nc1ccccc1 | NCI-H460 | inactive |
| CC(NS(=O)(=O)c1ccc([N+](=O)[O-])cc1)C(=O)O (stereo not given) | NCI-H460 | inactive |
| CC(C)OCN/C(N)=N\C#N | NCI-H460 | inactive |
| CCOC(=O)/C(C)=C(/O)C(=O)OCC | NCI-H460 | inactive |
| O=C1C2C=CC(n3[nH]c(=O)n(Cc4ccccc4)c3=O)CC2C(=O)N1c1ccc(Br)cc1 (stereo not given) | NCI-H460 | inactive |
| CC(O)C1(O)C(O)CC(OC2c3cc4c(c(O)c3[C@@H]3C[C@@]2(C)OC32C=c3cc[nH]c3=N2)C(=O)c2cccc(O)c2C4=O)OC1C (stereo not given in full) | NCI-H460 | active |
| CC1=C(OC2OC(CO)C(O)C(O)C2O)C(=O)C[C@H]2C1=CC[C@@H]1[C@@]2(C)C(=O)C[C@]2(C)[C@@H]([C@@](C)(O)C(=O)CCC(C)(C)O)[C@H](O)C[C@@]12C (stereo not given in full) | NCI-H460 | inactive |

---

Test system: MOLT-4
experiment-notes: NCI tumour cell line growth inhibition, 48 h
Activity calls are given as the source filed them. Cut-off read from the data, not from the text of the source: active = GI50 up to about 1.1 µM and inactive = higher.

| smiles-record | GI50 |
| --- | --- |
| CC1(C)C(=NNC(=O)C[N+](C)(C)C)C(C)(C)C1=NNC(=O)C[N+](C)(C)C | > 100 µM (inactive) |
| [N-]=[N+]=C(C(=O)OCC#CCOC(=O)C(=[N+]=[N-])S(=O)(=O)c1ccccc1)S(=O)(=O)c1ccccc1 | > 10 µM (inactive) |
| O=[N+]([O-])c1ccc(-c2nnc(C34CC5CC(CC(C5)C3)C4)o2)cc1 | > 100 µM (inactive) |
| COC(=O)N/N=C(\C(=O)Nc1cccc([N+](=O)[O-])c1)c1nc2ccc([N+](=O)[O-])cc2nc1O | 52.7 µM (inactive) |
